Biological target: MsEH (Mus musculus, UniProt P34914)
Sequence (P34914 1-554): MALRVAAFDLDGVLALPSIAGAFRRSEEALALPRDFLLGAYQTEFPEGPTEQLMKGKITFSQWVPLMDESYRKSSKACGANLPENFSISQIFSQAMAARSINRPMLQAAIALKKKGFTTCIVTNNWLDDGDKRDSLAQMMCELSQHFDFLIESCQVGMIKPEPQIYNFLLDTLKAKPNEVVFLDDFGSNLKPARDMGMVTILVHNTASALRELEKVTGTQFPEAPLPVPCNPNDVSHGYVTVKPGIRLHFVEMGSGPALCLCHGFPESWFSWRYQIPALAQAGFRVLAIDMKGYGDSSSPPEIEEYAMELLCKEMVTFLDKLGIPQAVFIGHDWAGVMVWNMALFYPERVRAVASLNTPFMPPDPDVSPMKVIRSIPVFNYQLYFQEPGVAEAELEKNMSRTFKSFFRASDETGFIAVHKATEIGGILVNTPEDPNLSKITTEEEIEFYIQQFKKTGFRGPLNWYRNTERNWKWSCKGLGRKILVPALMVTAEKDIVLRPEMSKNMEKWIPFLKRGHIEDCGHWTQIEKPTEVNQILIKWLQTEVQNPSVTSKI
pIC50: −log10 of the molar value.
measured-parameter: pIC50

1) Cc1ccc(NC(=O)Nc2ccc(C(=O)N3CCC[C@H](C(=O)NCCCCCCC(=O)NO)C3)cc2F)cc1F [Compound 28h]    8.13
2) O=C(CCCCCCNC(=O)[C@H]1CCCN(C(=O)c2ccc(NC(=O)Nc3ccc(F)c(Cl)c3)c(F)c2)C1)NO [Compound 28e]    8.27
3) O=C(CCCCCCNC(=O)[C@H]1CCCN(C(=O)c2ccc(NC(=O)Nc3ccc(Cl)c(F)c3)c(F)c2)C1)NO [Compound 28g]    7.33

I = O=C(CCCCCCNC(=O)[C@H]1CCCN(C(=O)c2ccc(NC(=O)Nc3cc(F)cc(F)c3)c(F)c2)C1)NO [Compound 28j]
II = Cc1cc(NC(=O)Nc2ccc(C(=O)N3CCC[C@H](C(=O)NCCCCCCC(=O)NO)C3)cc2F)ccc1F [Compound 28i]
Problem: Please indicate which entry, I or II , has the lower recorded pIC50 value. Please identify the chosen entry by its label.
Result: I

The values you see were collected from paper PMC11412156.
